# credit: patent US20220249441A1

test system: P. aeruginosa; assay: Checkerboard assay (antibiotic + adjuvant combination MIC); format: cell-based, Pseudomonas aeruginosa; settings: PA 91433; compound at 8 μM
Measured MIC of CAZ in the presence of compound, listed per entry for reference.
MEASURE: MIC of CAZ in the presence of compound

>>> result("N=C(N)NC[C@H]1O[C@H](O[C@H]2[C@H](OCCCCCCCCCCCCN3CCN(c4cc5c(cc4F)c(=O)c(C(=O)O)cn5C4CC4)CC3)[C@@H](O[C@H]3O[C@H](CO)[C@@H](O)[C@H](NC(=N)N)[C@H]3O)[C@H](NC(=N)N)C[C@@H]2NC(=N)N)[C@H](NC(=N)N)C[C@@H]1O [Compound 27]")
"4 µg/mL"
>>> result("Cl.Cl.Cl.Cl.Cl.NC[C@H]1O[C@H](O[C@H]2[C@H](OCCCCCCCCCCCCN3CCN(c4cc5c(cc4F)c(=O)c(C(=O)O)cn5C4CC4)CC3)[C@@H](O)[C@H](N)C[C@@H]2N)[C@H](N)C[C@@H]1O [Compound 24]")
"0.5 µg/mL"
>>> result("NC[C@H]1O[C@H](O[C@H]2[C@H](OCCCCc3cn(CCCCO[C@@H]4[C@@H](O)[C@H](N)C[C@H](N)[C@H]4O[C@H]4O[C@H](CN)[C@@H](O)C[C@H]4N)nn3)[C@@H](O)[C@H](N)C[C@@H]2N)[C@H](N)C[C@@H]1O [Compound 26, Nebramine Homodimer]")
"0.5 µg/mL"
>>> result("Cl.Cl.Cl.Cl.Cl.Cl.NC[C@H]1O[C@H](O[C@H]2[C@H](OCCCCCCCCCCCCN3CCN(c4cc5c(cc4F)c(=O)c(C(=O)O)cn5C4CC4)CC3)[C@@H](O[C@H]3O[C@H](CO)[C@@H](O)[C@H](N)[C@H]3O)[C@H](N)C[C@@H]2N)[C@H](N)C[C@@H]1O [Compound 21, Tobramycin-ciprofloxacin]")
"2 µg/mL"

---

Measured MIC of CAZ in the presence of compound, listed per entry for reference.
system: P. aeruginosa; experiment: Checkerboard assay (antibiotic + adjuvant combination MIC); format: cell-based, Pseudomonas aeruginosa; conditions: PA 101885; compound at 8 μM
MEASURE: MIC of CAZ in the presence of compound (µg/mL)

>>> result_number("Cl.Cl.Cl.Cl.Cl.NC[C@H]1O[C@H](O[C@H]2[C@H](OCCCCCCCCCCCCN3CCN(c4cc5c(cc4F)c(=O)c(C(=O)O)cn5C4CC4)CC3)[C@@H](O)[C@H](N)C[C@@H]2N)[C@H](N)C[C@@H]1O [Compound 24]")
4
>>> result_number("Cl.Cl.Cl.Cl.Cl.Cl.NC[C@H]1O[C@H](O[C@H]2[C@H](OCCCCCCCCCCCCN3CCN(c4cc5c(cc4F)c(=O)c(C(=O)O)cn5C4CC4)CC3)[C@@H](O[C@H]3O[C@H](CO)[C@@H](O)[C@H](N)[C@H]3O)[C@H](N)C[C@@H]2N)[C@H](N)C[C@@H]1O [Compound 21, Tobramycin-ciprofloxacin]")
1
>>> result_number("N=C(N)NC[C@H]1O[C@H](O[C@H]2[C@H](OCCCCCCCCCCCCN3CCN(c4cc5c(cc4F)c(=O)c(C(=O)O)cn5C4CC4)CC3)[C@@H](O[C@H]3O[C@H](CO)[C@@H](O)[C@H](NC(=N)N)[C@H]3O)[C@H](NC(=N)N)C[C@@H]2NC(=N)N)[C@H](NC(=N)N)C[C@@H]1O [Compound 27]")
2
>>> result_number("NC[C@H]1O[C@H](O[C@H]2[C@H](OCCCCc3cn(CCCCO[C@@H]4[C@@H](O)[C@H](N)C[C@H](N)[C@H]4O[C@H]4O[C@H](CN)[C@@H](O)C[C@H]4N)nn3)[C@@H](O)[C@H](N)C[C@@H]2N)[C@H](N)C[C@@H]1O [Compound 26, Nebramine Homodimer]")
1

---

system: P. aeruginosa; test: Checkerboard assay (antibiotic + adjuvant combination MIC); assay type: cell-based, Pseudomonas aeruginosa; details: P. aeruginosa PAO1; β-lactam antibiotic alone
MEASURE: MIC Alone (µg/mL)

>>> result_number("C[C@H]1[C@H](NC(=O)/C(=N\\OC(C)(C)C(=O)O)c2csc(N)n2)C(=O)N1S(=O)(=O)O [Aztreonam, reference compound]")
4
>>> result_number("C[C@@H](O)[C@H]1C(=O)N2C(C(=O)O)=C(SCCN=CN)C[C@H]12 [Imipenem, reference compound]")
4
>>> result_number("CC(C)(O/N=C(\\C(=O)N[C@@H]1C(=O)N2C(C(=O)[O-])=C(C[n+]3ccccc3)CS[C@H]12)c1csc(N)n1)C(=O)O [Ceftazidime, reference compound]")
2
>>> result_number("CCN1CCN(C(=O)N[C@@H](C(=O)N[C@@H]2C(=O)N3[C@@H]2SC(C)(C)[C@@H]3C(=O)O)c2ccccc2)C(=O)C1=O [Piperacillin, reference compound]")
8

---

tested on: P. aeruginosa; test: Checkerboard assay (antibiotic + adjuvant combination MIC); type: cell-based, Pseudomonas aeruginosa; settings: PA 107092; compound at 8 μM
MEASURE: MIC of IPM in the presence of compound (µg/mL)

>>> result_number("N=C(N)NC[C@H]1O[C@H](O[C@H]2[C@H](OCCCCCCCCCCCCN3CCN(c4cc5c(cc4F)c(=O)c(C(=O)O)cn5C4CC4)CC3)[C@@H](O[C@H]3O[C@H](CO)[C@@H](O)[C@H](NC(=N)N)[C@H]3O)[C@H](NC(=N)N)C[C@@H]2NC(=N)N)[C@H](NC(=N)N)C[C@@H]1O")
32
>>> result_number("Cl.Cl.Cl.Cl.Cl.Cl.NC[C@H]1O[C@H](O[C@H]2[C@H](OCCCCCCCCCCCCN3CCN(c4cc5c(cc4F)c(=O)c(C(=O)O)cn5C4CC4)CC3)[C@@H](O[C@H]3O[C@H](CO)[C@@H](O)[C@H](N)[C@H]3O)[C@H](N)C[C@@H]2N)[C@H](N)C[C@@H]1O")
8
>>> result_number("Cl.Cl.Cl.Cl.Cl.NC[C@H]1O[C@H](O[C@H]2[C@H](OCCCCCCCCCCCCN3CCN(c4cc5c(cc4F)c(=O)c(C(=O)O)cn5C4CC4)CC3)[C@@H](O)[C@H](N)C[C@@H]2N)[C@H](N)C[C@@H]1O")
16
>>> result_number("NC[C@H]1O[C@H](O[C@H]2[C@H](OCCCCc3cn(CCCCO[C@@H]4[C@@H](O)[C@H](N)C[C@H](N)[C@H]4O[C@H]4O[C@H](CN)[C@@H](O)C[C@H]4N)nn3)[C@@H](O)[C@H](N)C[C@@H]2N)[C@H](N)C[C@@H]1O")
32

---

Measured MIC of CAZ in the presence of compound, listed per entry for reference.
system: P. aeruginosa; assay: Checkerboard assay (antibiotic + adjuvant combination MIC); format: cell-based, Pseudomonas aeruginosa; settings: PA 260-97103; compound at 8 μM
MEASURE: MIC of CAZ in the presence of compound (µg/mL)

>>> result_number("Cl.Cl.Cl.Cl.Cl.NC[C@H]1O[C@H](O[C@H]2[C@H](OCCCCCCCCCCCCN3CCN(c4cc5c(cc4F)c(=O)c(C(=O)O)cn5C4CC4)CC3)[C@@H](O)[C@H](N)C[C@@H]2N)[C@H](N)C[C@@H]1O [Compound 24]")
0.25
>>> result_number("NC[C@H]1O[C@H](O[C@H]2[C@H](OCCCCc3cn(CCCCO[C@@H]4[C@@H](O)[C@H](N)C[C@H](N)[C@H]4O[C@H]4O[C@H](CN)[C@@H](O)C[C@H]4N)nn3)[C@@H](O)[C@H](N)C[C@@H]2N)[C@H](N)C[C@@H]1O [Compound 26, Nebramine Homodimer]")
16
>>> result_number("Cl.Cl.Cl.Cl.Cl.Cl.NC[C@H]1O[C@H](O[C@H]2[C@H](OCCCCCCCCCCCCN3CCN(c4cc5c(cc4F)c(=O)c(C(=O)O)cn5C4CC4)CC3)[C@@H](O[C@H]3O[C@H](CO)[C@@H](O)[C@H](N)[C@H]3O)[C@H](N)C[C@@H]2N)[C@H](N)C[C@@H]1O [Compound 21, Tobramycin-ciprofloxacin]")
4
>>> result_number("N=C(N)NC[C@H]1O[C@H](O[C@H]2[C@H](OCCCCCCCCCCCCN3CCN(c4cc5c(cc4F)c(=O)c(C(=O)O)cn5C4CC4)CC3)[C@@H](O[C@H]3O[C@H](CO)[C@@H](O)[C@H](NC(=N)N)[C@H]3O)[C@H](NC(=N)N)C[C@@H]2NC(=N)N)[C@H](NC(=N)N)C[C@@H]1O [Compound 27]")
16

---

System: P. aeruginosa
Assay: Checkerboard assay (antibiotic + adjuvant combination MIC)
Format: cell-based, Pseudomonas aeruginosa
Details: PAO1; compound at 8 μM
Description: Antimicrobial Susceptibility Assay. The in vitro antimicrobial activity of all compounds/antibiotics against a panel of bacteria was evaluated by microbroth dilution method in accordance with the Clinical and Laboratory Standards Institute (CLSI) guidelines (using ATCC strains as quality control strains) (54). […] Checkerboard Assay. […] MIC was recorded as wells with the lowest concentration of drugs with no bacterial growth. […]
MEASURE: MIC of ATM in the presence of compound (µg/mL)

>>> result_number("NC[C@H]1O[C@H](O[C@H]2[C@H](OCCCCc3cn(CCCCO[C@@H]4[C@@H](O)[C@H](N)C[C@H](N)[C@H]4O[C@H]4O[C@H](CN)[C@@H](O)C[C@H]4N)nn3)[C@@H](O)[C@H](N)C[C@@H]2N)[C@H](N)C[C@@H]1O")
1
>>> result_number("Cl.Cl.Cl.Cl.Cl.Cl.NC[C@H]1O[C@H](O[C@H]2[C@H](OCCCCCCCCCCCCN3CCN(c4cc5c(cc4F)c(=O)c(C(=O)O)cn5C4CC4)CC3)[C@@H](O[C@H]3O[C@H](CO)[C@@H](O)[C@H](N)[C@H]3O)[C@H](N)C[C@@H]2N)[C@H](N)C[C@@H]1O")
0.25
>>> result_number("N=C(N)NC[C@H]1O[C@H](O[C@H]2[C@H](OCCCCCCCCCCCCN3CCN(c4cc5c(cc4F)c(=O)c(C(=O)O)cn5C4CC4)CC3)[C@@H](O[C@H]3O[C@H](CO)[C@@H](O)[C@H](NC(=N)N)[C@H]3O)[C@H](NC(=N)N)C[C@@H]2NC(=N)N)[C@H](NC(=N)N)C[C@@H]1O")
0.5
>>> result_number("Cl.Cl.Cl.Cl.Cl.NC[C@H]1O[C@H](O[C@H]2[C@H](OCCCCCCCCCCCCN3CCN(c4cc5c(cc4F)c(=O)c(C(=O)O)cn5C4CC4)CC3)[C@@H](O)[C@H](N)C[C@@H]2N)[C@H](N)C[C@@H]1O")
0.5
